Recorded yeast fitness by entry
B1: tRNA (parent)
chain: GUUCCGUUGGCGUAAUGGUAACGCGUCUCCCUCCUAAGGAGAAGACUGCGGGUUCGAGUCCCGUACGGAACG

Variants of: B1
protocol-description: yeast fitness relative to wild type (ratio to wild type); higher = fitter; tRNA-Arg(CCU), competitive growth, 37 C, YPD
Variants at the floor of the assay were thinned out.
metric: yeast fitness

| monomer-sequence | measured-result |
| --- | --- |
| GUUCCGUUGGCGUAAUGGUACCGCGUCUCCCCCCUAAGGGGAAGACUGCGGGUUCGAGUCCCGUACGAAACG [A21C U32C A40G G68A] | ≤ 0.5 |
| GUUCCGUUGGGGUAAUGGUAACGCGUCUCCCUCCAAAGGAGAAGACUGCGGGUUCGAGUCCAGUAGGGAACG [C11G U35A C62A C66G] | ≤ 0.5 |
| GUUCCGUUGGCAUAAUGCUAACGCGUCUUCCUCCUAAGGAGAAGACUGCGGGUUCGCGUCCCGUCCGGAACG [G12A G18C C29U A57C A65C] | ≤ 0.5 |
| GUUGAGUUGGCGUAAAAGUAACGCGUCUCCCUCCUAAGGAGAAGACUGCAGGUUCGAGUCCCGUACGGAACG [C4G C5A U16A G17A G50A] | ≤ 0.5 |
| GUUCCGUUGGCGUAAUGGUAACGCGUCUCCCUCCUAAGGUGAAGACUGCGGGUUCGAGACCCGUACGGAACG [A40U U59A] | 0.678 |
| GUUCCGUUGGCGUAAUGGUAACGCGUCUGCCUCCUAAGGAGAAGACUGCGGGUGCGAGACCCGUACGGAACG [C29G U54G U59A] | ≤ 0.5 |
| GUUCCGUUGGCGUAAUGGUUAAGCGUCUCCCUCCUAAGGAGAAGACUGCGGGUUCGAGUCAGGUACGAAACG [A20U C22A C61A C62G G68A] | ≤ 0.5 |
| GUUCCGUUGGCGUCAUGGUAACGCGUCUCCCUCCUAAGGAGAAGACUGCGGGUUCGAGUCGCGUACGGAACG [A14C C61G] | 0.536 |
| GUUUCGUUGGCGUAAUGGUAACGUGUCUCCCUCCUAAGGAGAAGACUGCGGGUACGAGUCCCGUACGGAACG [C4U C24U U54A] | ≤ 0.5 |
| GUUCCGGUGGCGUAAUGGUAACGCGUCUCCCUCCUAAGGAGAAGACUGCGGGUUCAAGUCCAGUACGGAACG [U7G G56A C62A] | 0.572 |
| GUUCCGUUGGCGUAAUGGUAACGCAUCUCACUCCUAAGGAGAAGGCUGCGGGUUCGAGUCCCGCACGGAACG [G25A C30A A45G U64C] | 0.984 |
| GUUCCGUUGGCGUAAUGGUAACGCGUCUCCCUCCUAAGCAGUAGACUGCGGGUUCGAGUGCUGUACCGAACG [G39C A42U C60G C62U G67C] | ≤ 0.5 |
